system: SNB-75 CNS; test: NCI tumour cell line growth inhibition, 384-well format
measure_name: TGI (µM)

>>> print(df.to_string())
                                   compound  relation_symbol  test_value
0  Nc1ncccc1-c1nc2ccc(-c3ccccc3)nc2n1-c1ccc(C2(N)CCC2)cc1                =        2.02
1                  Cn1nnc2c(C(N)=O)ncn2c1=O                >         100
2  C[C@@H]1COCCN1c1cc(-c2ccnn2C)c2ccnc(-c3ccn[nH]3)c2n1                =        1.76
3  C=CCn1c(=O)c2cnc(Nc3ccc(N4CCN(C)CC4)cc3)nc2n1-c1cccc(C(C)(C)O)n1                =        4.35
